Quick reference for pIC50 among some compounds
target: Cyclin-dependent kinase 2/cyclin E (Homo sapiens); experiment: Inhibitory concentration against Cyclin-dependent kinase 2-cyclin E; format: protein-complex assay
pIC50: −log10 of the molar value.
Readout: pIC50

structure_notation=CC(=O)Nc1cccc2c1C(=O)c1c-2n[nH]c1-c1ccc(N2CCOCC2)cc1 readout=pIC50 reading_qualifier== numeric_readout=6.43
structure_notation=NC(=O)Nc1cccc2c1C(=O)c1c-2n[nH]c1C1CC1 readout=pIC50 reading_qualifier== numeric_readout=6.85
structure_notation=CC(=O)Nc1cccc2c1C(=O)c1c-2n[nH]c1-c1ccc(Oc2ccccc2)cc1 readout=pIC50 reading_qualifier=< numeric_readout=5.60
structure_notation=CCOC(=O)c1ccc(-c2[nH]nc3c2C(=O)c2c(NC(N)=O)cccc2-3)s1 readout=pIC50 reading_qualifier== numeric_readout=6.89
structure_notation=CCc1ccc(-c2[nH]nc3c2C(=O)c2c(NC(C)=O)cccc2-3)cc1 readout=pIC50 reading_qualifier== numeric_readout=6.55
structure_notation=CC(C)c1[nH]nc2c1C(=O)c1c(NC(N)=O)cccc1-2 readout=pIC50 reading_qualifier== numeric_readout=7.08
structure_notation=CC(=O)Nc1cccc2c1C(=O)c1c-2n[nH]c1C(C)(C)C readout=pIC50 reading_qualifier== numeric_readout=6.01
structure_notation=CC(=O)Nc1cccc2c1C(=O)c1c-2n[nH]c1C1CCCCC1 readout=pIC50 reading_qualifier== numeric_readout=5.96
structure_notation=NC(=O)Nc1cccc2c1C(=O)c1c-2n[nH]c1-c1ccsc1 readout=pIC50 reading_qualifier== numeric_readout=8.05
structure_notation=CCc1[nH]nc2c1C(=O)c1c(NC(=O)CN3CCC(CN)CC3)cccc1-2 readout=pIC50 reading_qualifier== numeric_readout=6.62
structure_notation=CCCc1ccc(-c2[nH]nc3c2C(=O)c2c(NC(C)=O)cccc2-3)cc1 readout=pIC50 reading_qualifier== numeric_readout=6.31
structure_notation=CC(=O)Nc1cccc2c1C(=O)c1c-2n[nH]c1-c1ccc(O)cc1 readout=pIC50 reading_qualifier== numeric_readout=6.28
structure_notation=CN(C)c1ccc(-c2[nH]nc3c2C(=O)c2c(NC(=O)CN4CCC(O)CC4)cccc2-3)cc1 readout=pIC50 reading_qualifier== numeric_readout=7.48
structure_notation=COc1ccc(-c2[nH]nc3c2C(=O)c2c(NC(=O)CN4CCC(CN)CC4)cccc2-3)cc1 readout=pIC50 reading_qualifier== numeric_readout=7.85
structure_notation=NC(=O)Nc1cccc2c1C(=O)c1c-2n[nH]c1-c1ccco1 readout=pIC50 reading_qualifier== numeric_readout=7.07
structure_notation=CC(=O)Nc1cccc2c1C(=O)c1c(-c3ccco3)n[nH]c1-2 readout=pIC50 reading_qualifier=< numeric_readout=5.77
structure_notation=Cn1ccc(-c2[nH]nc3c2C(=O)c2c(NC(N)=O)cccc2-3)c1 readout=pIC50 reading_qualifier== numeric_readout=7.59
structure_notation=Cc1ccc(-c2[nH]nc3c2C(=O)c2c(NC(N)=O)cccc2-3)s1 readout=pIC50 reading_qualifier== numeric_readout=7.89
structure_notation=NC(=O)Nc1cccc2c1C(=O)c1c(-c3csc(Cl)c3)n[nH]c1-2 readout=pIC50 reading_qualifier== numeric_readout=7.89
structure_notation=CSc1ccc(-c2[nH]nc3c2C(=O)c2c(NC(C)=O)cccc2-3)cc1 readout=pIC50 reading_qualifier== numeric_readout=6.92
structure_notation=CCCCc1ccc(-c2[nH]nc3c2C(=O)c2c(NC(C)=O)cccc2-3)cc1 readout=pIC50 reading_qualifier=< numeric_readout=6.25
structure_notation=NC(=O)C1CCN(CC(=O)Nc2cccc3c2C(=O)c2c-3n[nH]c2C2CC2)CC1 readout=pIC50 reading_qualifier== numeric_readout=7.59
structure_notation=CCc1[nH]nc2c1C(=O)c1c(NC(C)=O)cccc1-2 readout=pIC50 reading_qualifier== numeric_readout=5.82
structure_notation=NCC1CCN(CC(=O)Nc2cccc3c2C(=O)c2c-3n[nH]c2C2CC2)CC1 readout=pIC50 reading_qualifier== numeric_readout=7.26
structure_notation=CCc1[nH]nc2c1C(=O)c1c(NC(N)=O)cccc1-2 readout=pIC50 reading_qualifier== numeric_readout=6.54
structure_notation=CC(=O)Nc1cccc2c1C(=O)c1c-2n[nH]c1CC(C)C readout=pIC50 reading_qualifier=< numeric_readout=5.46
structure_notation=CC(=O)Nc1cccc2c1C(=O)c1c-2n[nH]c1C(C)C readout=pIC50 reading_qualifier== numeric_readout=6.08
structure_notation=CN(C)c1ccc(-c2[nH]nc3c2C(=O)c2c(NC(=O)CN4CCC(CN)CC4)cccc2-3)cc1 readout=pIC50 reading_qualifier== numeric_readout=7.82
structure_notation=CC(=O)Nc1cccc2c1C(=O)c1c-2n[nH]c1-c1ccncc1 readout=pIC50 reading_qualifier== numeric_readout=7.12
structure_notation=CC(=O)Nc1cccc2c1C(=O)c1c-2n[nH]c1-c1cc(Cl)sc1Cl readout=pIC50 reading_qualifier=< numeric_readout=5.59
structure_notation=CCOc1ccc(-c2[nH]nc3c2C(=O)c2c(NC(C)=O)cccc2-3)cc1 readout=pIC50 reading_qualifier=< numeric_readout=6.40
structure_notation=NC(=O)Nc1cccc2c1C(=O)c1c-2n[nH]c1C1CCCCC1 readout=pIC50 reading_qualifier== numeric_readout=6.85
structure_notation=CC(C)c1n[nH]c2c1C(=O)c1c(NC(=O)CN3CCC(C(N)=O)CC3)cccc1-2 readout=pIC50 reading_qualifier== numeric_readout=7.68
structure_notation=NC(=O)Nc1cccc2c1C(=O)c1c-2n[nH]c1-c1cccs1 readout=pIC50 reading_qualifier== numeric_readout=7.96
structure_notation=NCC1CCN(CC(=O)Nc2cccc3c2C(=O)c2c-3n[nH]c2-c2ccc(N3CCOCC3)cc2)CC1 readout=pIC50 reading_qualifier== numeric_readout=7.59

These entries and their values trace back to ChEMBL document CHEMBL1136010.
